Recorded measurements of CRF2R Emax, one per entry
tgt: T1, CRF2R
T1 sequence (Q13324 whole entry, species assumed, looked up): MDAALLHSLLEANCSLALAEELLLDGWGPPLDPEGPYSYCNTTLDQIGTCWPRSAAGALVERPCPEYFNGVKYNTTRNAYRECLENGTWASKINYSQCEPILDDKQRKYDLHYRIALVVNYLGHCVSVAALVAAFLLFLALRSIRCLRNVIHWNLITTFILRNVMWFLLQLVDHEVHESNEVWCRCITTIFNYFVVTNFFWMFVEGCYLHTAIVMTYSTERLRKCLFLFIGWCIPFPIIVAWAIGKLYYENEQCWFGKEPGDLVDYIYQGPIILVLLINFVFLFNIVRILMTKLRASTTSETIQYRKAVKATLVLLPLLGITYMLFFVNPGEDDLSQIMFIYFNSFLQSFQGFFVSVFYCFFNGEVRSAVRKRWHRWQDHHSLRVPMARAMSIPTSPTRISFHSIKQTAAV
procedure.text: cell-based or functional assay
Ends that are not written are not given here.
measurement.kind: CRF2R Emax (%)

{"columns": ["binder", "measured.result"],
 "data": [
  ["DNPSLSIDLPFILLRTLLELARTQSQRERAEQNAIIFASV-NH2 [SEQ ID NO 181]", 97.8],
  ["SQEPPISLDLPTELLREVLEMTKADQLAQQAHSNRKIIDIA-NH2 [SEQ ID NO 92]", 15.8],
  ["ZGPPISIDLPLHLLRKMIEIEKQEKEKQQATTNARILARV (C-terminal amide) [SEQ ID NO 145]", 69],
  ["ZGPPISIDLSLELLRKMIEQARARAAREQATTNARILARV (C-terminal amide) [SEQ ID NO 156]", 79],
  ["IVLSLDVPIGLLQILLEQERQEAAREQATTNARILARV-NH2 [SEQ ID NO 118]", 100],
  ["DNPSLSIDLPLLLLRTLLELARTQSQRERAEQNAIIFASV-NH2 [SEQ ID NO 174]", 97.2]
]}
